read-out: Macrophage colony-stimulating factor (MCSF), CSF1 (gene 1435); assay: BSK_LPS_MCSF: BioMAP Diversity Plus: LPS Assay for Macrophage colony-stimulating factor (MCSF) Biomarker Activity (AID 2283083); details: primary human HUVEC with PBMC; actives raise or lower the signal
Activity calls are given as the source filed them. How the source made its calls: active means hit-call score of the fitted dose curve at least 0.9, where 1 is the maximum; inactive means score below 0.9.
Write down one outcome, taken from active, inactive

Example entries and their recorded answers appear below.
molecule=Cc1ccc(O)c(-n2nc3ccccc3n2)c1 label=inactive
molecule=C=CC(=O)OCCC(F)(F)C(F)(F)C(F)(F)C(F)(F)F label=inactive
molecule=Nc1cc([N+](=O)[O-])cc(Cl)c1O label=inactive
molecule=O=C(c1ccccc1)c1ccc(O)cc1O label=inactive
molecule=CCN(CC)c1ccc(C=O)cc1 label=inactive
molecule=O=S(=O)(O)CCC(F)(F)C(F)(F)C(F)(F)C(F)(F)F label=inactive
molecule=O=S(=O)(OCC(F)(F)F)C(F)(F)C(F)(F)C(F)(F)C(F)(F)F label=inactive
molecule=O=C(O)C(F)(F)C(F)(F)C(F)(F)C(F)(F)C(F)(F)C(F)(F)C(F)F label=inactive

Hello, I am checking results. What call was entered for Cc1cc(C)c(O)c(C(C)(C)C)c1 ? active

Hello, I am checking results. What call was entered for NC(=O)C(F)(F)C(F)(F)C(F)(F)C(F)(F)C(F)(F)C(F)(F)C(F)(F)F ? inactive

Hello, I am checking results. What call was entered for NC(=O)C(F)(F)C(F)(F)C(F)(F)C(F)F ? inactive

Hello, I am checking results. What call was entered for O=C(Cl)C(F)(F)C(F)(F)C(F)(F)C(F)(F)C(F)(F)C(F)(F)C(F)(F)F ? inactive

Hello, I am checking results. What call was entered for CNS(=O)(=O)C(F)(F)C(F)(F)C(F)(F)C(F)(F)C(F)(F)C(F)(F)C(F)(F)C(F)(F)F ? inactive

Hello, I am checking results. What call was entered for COC(F)(C(F)F)C(F)(F)F (configuration not stated) ? inactive

Hello, I am checking results. What call was entered for O=C1C=CC(=O)N1c1ccc(Cc2ccc(N3C(=O)C=CC3=O)cc2)cc1 ? active

Hello, I am checking results. What call was entered for CCN(CC)c1ccc(C=O)c(O)c1 ? inactive

Hello, I am checking results. What call was entered for FC(F)(F)C(F)(F)C(F)(F)CC1CO1 (configuration not stated) ? inactive

----------
read-out: Plasminogen activator inhibitor-1 (PAI1), SERPINE1 (gene 5054); assay: BSK_hDFCGF_PAI1: BioMAP Diversity Plus: hDFCGF Assay for Plasminogen activator inhibitor-1 (PAI1) Biomarker Activity (AID 2283066); settings: primary human foreskin fibroblasts; actives raise or lower the signal
The source made the active and inactive calls. Rule for the calls: active = hit-call score of the fitted dose curve at least 0.9, where 1 is the maximum; inactive = score below 0.9.
Write down one outcome, taken from Y for active, N for inactive

compound=C=C(C)C(=O)OCC(F)(F)C(F)(F)C(F)(F)C(F)F label=N
compound="OCC(O)CC(F)(F)C(F)(F)C(F)(F)C(F)(F)C(F)(F)C(F)(F)C(F)(F)C(F)(F)F (stereo not drawn)" label=N
compound=CC(C)(C)c1cc(CCC(=O)NCCCCCCNC(=O)CCc2cc(C(C)(C)C)c(O)c(C(C)(C)C)c2)cc(C(C)(C)C)c1O label=N
compound=NC(=O)C(F)(F)C(F)(F)C(F)(F)F label=N

Hello, I am checking results. What call was entered for O=S(=O)(Cl)C(F)(F)C(F)(F)C(F)(F)C(F)(F)C(F)(F)C(F)(F)C(F)(F)C(F)(F)F ? N

Hello, I am checking results. What call was entered for O=C(O)CCC(F)(F)C(F)(F)C(F)(F)C(F)(F)C(F)(F)C(F)(F)C(F)(F)F ? N

Hello, I am checking results. What call was entered for O=C(Cl)C(F)(F)C(F)(F)C(F)(F)C(F)(F)C(F)(F)C(F)(F)F ? N

Hello, I am checking results. What call was entered for O=S(=O)(O)CCC(F)(F)C(F)(F)C(F)(F)C(F)(F)F ? N

Hello, I am checking results. What call was entered for Brc1nc2ccccc2s1 ? N

Where do the numbers come from? From PubChem BioAssay (EPA / NIEHS).
